ASSAY_TARGET: UniProtKB P56373
PROTOCOL_TEXT: P2X3 receptor inhibition, ATP-evoked Fluo-3 calcium fluorescence (FDSS 3000)
APPLIED_CONDITIONS: C6BU-1 cell transfected with human P2X3 receptor gene; ATP-evoked Fluo-3 fluorescence
pIC50: −log10 of the molar value.
Please note: yes applies when pIC50 is 7 or greater, and no applies otherwise.

Query: I'd appreciate it if you could say whether Cc1ccc(-c2ccc(N3C(=O)C(O)=C(C(=O)CC(C)C)C3c3ccccc3C(=O)N(C)C)cc2)o1 (stereo not drawn) has pIC50 at least equal to 7.
Reply: yes

Query: I'd appreciate it if you could say whether COc1ccccc1C1C(C(=O)CC(C)(C)C(=O)O)=C(O)C(=O)N1c1ccc(-c2ccsc2)cc1 (stereo not drawn) has pIC50 at least equal to 7.
Reply: no

Query: I'd appreciate it if you could say whether COc1ccccc1C1c2c(C(C)C)n[nH]c2C(=O)N1c1ccc(-c2ccsc2)c(F)c1 (stereo not drawn) has pIC50 at least equal to 7.
Reply: yes

Query: I'd appreciate it if you could say whether Cc1cc(-c2ccc(N3C(=O)C(O)=C(C(=O)CC(C)C)C3c3ccccc3OCCO)cc2)cs1 (stereo not drawn) has pIC50 at least equal to 7.
Reply: yes

Query: I'd appreciate it if you could say whether COc1ccccc1C1c2c(C(C)(C)CO)n[nH]c2C(=O)N1c1ccc(-c2cccs2)cn1 (stereo not drawn) has pIC50 at least equal to 7.
Reply: yes

Query: I'd appreciate it if you could say whether COCCOc1ccccc1C1C(C(=O)CC(C)C)=C(O)C(=O)N1c1ccc(-c2csc(C)c2)cc1 (stereo not drawn) has pIC50 at least equal to 7.
Reply: yes

Query: I'd appreciate it if you could say whether COCCOc1ncccc1C1C(C(=O)C(C)C)=C(O)C(=O)N1c1ccc(-c2cccs2)cc1 (stereo not drawn) has pIC50 at least equal to 7.
Reply: yes

Query: I'd appreciate it if you could say whether O=C(C1=C(O)C(=O)N(c2ccc(-c3ccon3)cc2)C1C1CCCCC1)c1ccc(OC(F)(F)F)cc1 (stereo not drawn) has pIC50 at least equal to 7.
Reply: no

Query: I'd appreciate it if you could say whether CN(C)CCOc1ccccc1C1c2c(C(C)(C)C)n[nH]c2C(=O)N1c1ccc(-c2ccsc2)cc1 (stereo not drawn) has pIC50 at least equal to 7.
Reply: yes

Query: I'd appreciate it if you could say whether COCCOc1ccccc1C1C(C(=O)CC(C)C)=C(O)C(=O)N1c1ccc(-c2ccsc2)cc1 (stereo not drawn) has pIC50 at least equal to 7.
Reply: yes

Query: I'd appreciate it if you could say whether COc1ccccc1C1c2c(C(C)(CO)CO)n[nH]c2C(=O)N1c1ccc(-c2ccon2)cc1 (stereo not drawn) has pIC50 at least equal to 7.
Reply: no

Query: I'd appreciate it if you could say whether CCOc1ncccc1C1C(C(=O)C2CCCC2)=C(O)C(=O)N1c1ccc(-c2ccsc2)cc1 (stereo not drawn) has pIC50 at least equal to 7.
Reply: yes

Query: I'd appreciate it if you could say whether COc1ccc(-c2n[nH]c3c2C(c2ccccc2OC)N(CCCc2ccco2)C3=O)cc1 (stereo not drawn) has pIC50 at least equal to 7.
Reply: no

Query: I'd appreciate it if you could say whether COCCN(C)C(=O)c1ccccc1C1C(C(=O)CC(C)C)=C(O)C(=O)N1c1ccc(-c2csc(C)c2)cc1 (stereo not drawn) has pIC50 at least equal to 7.
Reply: yes

Query: I'd appreciate it if you could say whether COCCOc1ccccc1C1C(C(=O)C(C)(C)C)=C(O)C(=O)N1c1ccc(-c2ccoc2)cc1 (stereo not drawn) has pIC50 at least equal to 7.
Reply: yes

* * *

Consider the following molecules; for each one, report its IC50.
ASSAY_TARGET: human P2X3 receptor (Homo sapiens (Human))
PROTOCOL_TEXT: P2X3 receptor inhibition, ATP-evoked Fluo-3 calcium fluorescence (FDSS 3000)
APPLIED_CONDITIONS: C6BU-1 cell transfected with human P2X3 receptor gene; ATP-evoked Fluo-3 fluorescence
Provide the reading as a plain figure in nM.

Query: Give IC50 for this entry on human P2X3 receptor (Homo sapiens (Human)): COCCOc1ncccc1C1C(C(=O)C(C)C)=C(O)C(=O)N1c1ccc(-c2ccc(C)o2)cc1 (stereo not drawn)
Reply: 20

Query: Give IC50 for this entry on human P2X3 receptor (Homo sapiens (Human)): COCc1ccccc1C1C(C(=O)C(C)C)=C(O)C(=O)N1c1ccc(C2=CCCC2)cc1 (stereo not drawn)
Reply: 39

Query: Give IC50 for this entry on human P2X3 receptor (Homo sapiens (Human)): Cc1cc(-c2ccc(N3C(=O)C(O)=C(C(=O)C(C)C)C3c3ccccc3C(=O)N(C)C)cc2)cs1 (stereo not drawn)
Reply: 177

* * *

ASSAY_TARGET: human P2X3 receptor (Homo sapiens (Human), UniProt P56373)
Sequence (P56373 whole entry): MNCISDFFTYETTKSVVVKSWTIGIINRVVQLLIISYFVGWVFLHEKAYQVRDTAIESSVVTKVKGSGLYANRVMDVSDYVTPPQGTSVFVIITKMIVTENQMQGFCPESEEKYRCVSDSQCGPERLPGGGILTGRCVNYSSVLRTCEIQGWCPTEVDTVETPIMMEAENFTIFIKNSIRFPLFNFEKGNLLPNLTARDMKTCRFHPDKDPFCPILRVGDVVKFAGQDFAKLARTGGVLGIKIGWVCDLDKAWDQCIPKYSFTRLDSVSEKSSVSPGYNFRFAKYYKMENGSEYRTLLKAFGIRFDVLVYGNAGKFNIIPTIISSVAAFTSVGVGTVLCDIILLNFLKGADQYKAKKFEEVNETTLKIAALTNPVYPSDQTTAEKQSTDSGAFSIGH
PROTOCOL_TEXT: P2X3 receptor inhibition, ATP-evoked Fluo-3 calcium fluorescence (FDSS 3000)
APPLIED_CONDITIONS: C6BU-1 cell transfected with human P2X3 receptor gene; ATP-evoked Fluo-3 fluorescence
pIC50: −log10 of the molar value.
Please note: fulfilled applies when pIC50 is 7 or greater, and not fulfilled applies otherwise.

Query: I'd appreciate it if you could say whether COc1ccccc1C1c2c(C(C)(C)CO)n[nH]c2C(=O)N1c1ccc(-c2ccco2)cc1 (centres unmarked) has pIC50 at least equal to 7.
Reply: fulfilled

Query: I'd appreciate it if you could say whether COc1ccc(-c2n[nH]c3c2C(C2CCCCC2)N(c2ccc4[nH]ccc4c2)C3=O)cc1 (centres unmarked) has pIC50 at least equal to 7.
Reply: not fulfilled

Query: I'd appreciate it if you could say whether COc1ccc(F)cc1C1C(C(=O)C(C)C)=C(O)C(=O)N1c1ccc(-c2ccc(C)o2)cc1 (centres unmarked) has pIC50 at least equal to 7.
Reply: fulfilled

Query: I'd appreciate it if you could say whether Cc1ccc(-c2ccc(N3C(=O)C(O)=C(C(=O)CC(C)C)C3c3cccnc3C(=O)NCCN(C)C)cc2)s1 (centres unmarked) has pIC50 at least equal to 7.
Reply: fulfilled

Query: I'd appreciate it if you could say whether COc1ccc(C(=O)C2=C(O)C(=O)N(c3ccc(-c4nc(C)no4)cc3)C2C2CCCCC2)cc1 (centres unmarked) has pIC50 at least equal to 7.
Reply: fulfilled

Query: I'd appreciate it if you could say whether CC(C)c1n[nH]c2c1C(c1ccccc1CO)N(c1ccc(-c3ccsc3)cc1)C2=O (centres unmarked) has pIC50 at least equal to 7.
Reply: fulfilled

Query: I'd appreciate it if you could say whether CC(C)CC(=O)C1=C(O)C(=O)N(c2ccc(-c3ccsc3)cc2)C1c1ccccc1OCC(CO)CO (centres unmarked) has pIC50 at least equal to 7.
Reply: fulfilled

Query: I'd appreciate it if you could say whether CNC(=O)C(C)(C)c1n[nH]c2c1C(c1ccccc1OC)N(c1ccc(-c3ccsc3)cc1)C2=O (centres unmarked) has pIC50 at least equal to 7.
Reply: fulfilled

Query: I'd appreciate it if you could say whether COCCOc1ncccc1C1c2c(C(C)(C)C)n[nH]c2C(=O)N1c1ccc(-c2ccsc2)cc1 (centres unmarked) has pIC50 at least equal to 7.
Reply: fulfilled

Query: I'd appreciate it if you could say whether COc1ccccc1C1C(C(=O)C(C)C)=C(O)C(=O)N1c1ccc(-c2ccsc2)c(F)c1 (centres unmarked) has pIC50 at least equal to 7.
Reply: fulfilled

Query: I'd appreciate it if you could say whether Cc1nc(-c2ccc(N3C(=O)C(O)=C(C(=O)C4CCCC4)C3c3ccccc3OCC(C)C)cc2)no1 (centres unmarked) has pIC50 at least equal to 7.
Reply: fulfilled

Query: I'd appreciate it if you could say whether CC(C)C(=O)C1=C(O)C(=O)N(c2ccc(-c3ccsc3)cc2)C1c1ccccc1OCC(N)=O (centres unmarked) has pIC50 at least equal to 7.
Reply: fulfilled

Query: I'd appreciate it if you could say whether C=C(C)c1n[nH]c2c1C(c1ccccc1OC)N(c1ccc(-c3ccon3)cc1)C2=O (centres unmarked) has pIC50 at least equal to 7.
Reply: not fulfilled

Query: I'd appreciate it if you could say whether Cc1nc(-c2ccc(N3C(=O)C(O)=C(C(=O)C(C)C)C3c3ccccc3N3CCOCC3)cc2)no1 (centres unmarked) has pIC50 at least equal to 7.
Reply: not fulfilled

Query: I'd appreciate it if you could say whether COCCCOc1ncccc1C1C(C(=O)C(C)C)=C(O)C(=O)N1c1ccc(-c2ccc(C)s2)cc1 (centres unmarked) has pIC50 at least equal to 7.
Reply: fulfilled

* * *

ASSAY_TARGET: human P2X3 receptor (Homo sapiens (Human), UniProt P56373)
PROTOCOL_TEXT: P2X3 receptor inhibition, ATP-evoked Fluo-3 calcium fluorescence (FDSS 3000)
APPLIED_CONDITIONS: C6BU-1 cell transfected with human P2X3 receptor gene; ATP-evoked Fluo-3 fluorescence
Consider the following compounds; for each one, report its IC50.
Provide the reading as a plain figure in nM.

Query: State its IC50 for this compound: COCc1ccccc1C1C(C(=O)C(C)C)=C(O)C(=O)N1c1ccc(-c2ccsc2)cc1 (stereo not drawn) [Compound I-186]
Reply: 13

Query: State its IC50 for this compound: Cc1ccc(-c2ccc(N3C(=O)C(O)=C(C(=O)CC(C)C)C3c3cccnc3C(=O)N(C)C)cc2)s1 (stereo not drawn) [Compound I-574]
Reply: 280

Query: State its IC50 for this compound: COCc1ccccc1C1C(C(=O)CC(C)C)=C(O)C(=O)N1c1ccc(-c2cscn2)cc1 (stereo not drawn) [Compound I-422]
Reply: 361
